Each recorded value in this set is attributed to patent US7622441B2.

PROTOCOL: Serum naltrexone levels of rats orally dosed with BB301 polyserine-naltrexone conjugate vs. naltrexone (ELISA)
RUN_CONDITIONS: Sprague-Dawley, rat, in vivo, po, 1.8 mg, Mean Serum Concentrations +/− SD, oral capsule, ½ dose (1.8 mg) at 0 hours and at […], 5 hours
MEASURED_METRIC: concentration at 5 h (ng/mL)
Reply numerically in ng/mL, unit not repeated.

Entry O=C1CC[C@@]2(O)[C@H]3Cc4ccc(O)c5c4[C@@]2(CCN3CC2CC2)[C@H]1O5 [Naltrexone] has what concentration at 5 h?
4

----------
PROTOCOL: Pharmacokinetics of peptide-amphetamine conjugates by oral administration (serum amphetamine by ELISA)
RUN_CONDITIONS: rat, oral solution in water, equivalent amount of amphetamine
MEASURED_METRIC: AUC 0-12 h (ng·h/mL)
Reply numerically in ng·h/mL, unit not repeated.

[
  {
    "MOLECULE": "CC(Cc1ccccc1)NC(=O)C(N)CO (centres unmarked) [Ser-Amp]",
    "UNIT_TEXT": "ng·h/mL",
    "TEST_VALUE": 290
  }
]

Could you now consider this next molecule?
Entry CC(Cc1ccccc1)NC(=O)[C@@H](N)Cc1ccccc1 (some centres unmarked) [Phe-Amp] has what AUC 0-12 h?
505

----------
PROTOCOL: Pharmacokinetics of peptide-amphetamine conjugates by oral administration (serum amphetamine by ELISA)
RUN_CONDITIONS: male, Sprague-Dawley, rat, in vivo, po
Where a name gives a salt, the structure may show the parent alone.
MEASURED_METRIC: Cmax (µg/mL)
Reply numerically in µg/mL, unit not repeated.

Entry C[C@H](N)Cc1ccccc1 [Amphetamine, d-amphetamine sulfate, reference compound] has what Cmax?
0.193
